# target-or-system: Serotonin 3 (5-HT3) receptor (Rattus norvegicus, UniProt P35563+Q9JJ16)
# assay-remarks: Compound was evaluated for the displacement of [3H]Q-ICS-205-930 from 5-HT3 recognition sites in rat brain membranes
# Assay type: cell membranes
measured-metric: IC50 (nM)
State just the number; it will be interpreted in nM.

The measured IC50 associated with CN1[C@@H]2CC[C@H]1C[C@@H](OC(=O)c1c[nH]c3ccccc13)C2 reads 1.26

// field: IC50; key: Cn1c([Si](C)(C)C)c(C2=NCC3(CN4CCC3CC4)O2)c2ccccc21 (configuration not stated) ; value = 155

====

# target-or-system: Serotonin 3 (5-HT3) receptor (Rattus norvegicus, UniProt P35563+Q9JJ16)
# Sequence (P35563 whole entry): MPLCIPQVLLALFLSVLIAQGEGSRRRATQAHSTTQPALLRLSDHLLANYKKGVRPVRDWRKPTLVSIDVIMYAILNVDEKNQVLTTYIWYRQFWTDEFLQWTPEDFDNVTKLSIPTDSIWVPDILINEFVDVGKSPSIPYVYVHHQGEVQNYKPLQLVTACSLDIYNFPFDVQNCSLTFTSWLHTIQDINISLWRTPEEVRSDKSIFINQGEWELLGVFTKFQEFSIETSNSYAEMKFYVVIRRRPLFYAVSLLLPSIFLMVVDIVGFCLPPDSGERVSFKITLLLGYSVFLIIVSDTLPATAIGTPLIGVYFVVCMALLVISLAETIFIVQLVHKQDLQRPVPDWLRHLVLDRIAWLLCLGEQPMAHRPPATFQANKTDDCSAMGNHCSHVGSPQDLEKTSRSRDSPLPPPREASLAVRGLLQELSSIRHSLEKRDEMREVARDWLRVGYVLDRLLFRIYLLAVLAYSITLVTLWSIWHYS
# Sequence (Q9JJ16 whole entry): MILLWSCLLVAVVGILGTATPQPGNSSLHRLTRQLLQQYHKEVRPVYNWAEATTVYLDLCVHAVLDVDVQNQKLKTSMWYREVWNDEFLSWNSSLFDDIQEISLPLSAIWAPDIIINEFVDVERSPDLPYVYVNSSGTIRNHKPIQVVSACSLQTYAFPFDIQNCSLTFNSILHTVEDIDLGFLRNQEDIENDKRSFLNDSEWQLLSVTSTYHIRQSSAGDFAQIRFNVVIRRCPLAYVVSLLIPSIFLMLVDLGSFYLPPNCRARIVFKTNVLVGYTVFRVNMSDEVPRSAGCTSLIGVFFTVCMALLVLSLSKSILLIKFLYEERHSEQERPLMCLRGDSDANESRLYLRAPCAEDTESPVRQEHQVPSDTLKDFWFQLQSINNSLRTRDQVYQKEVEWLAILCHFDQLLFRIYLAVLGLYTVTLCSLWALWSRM
# assay-remarks: Displacement of [3H]Q-ICS-205-930 from 5-hydroxytryptamine 3 receptor recognition sites in rat brain membranes
# Type: cell membranes
measured-metric: pIC50
Keep it numeric: pIC50 is minus log10 of the concentration in mol/L.

compound CN1C2CCC1CC1(CN=C(c3cn(C)c4ccccc34)O1)C2 (stereo in doubt; 22b) , pIC50 observed: 8.34

Record Cn1cc(C2=NCC3(C[N+]4([O-])CCC3CC4)O2)c2ccccc21 (stereo unspecified) , field pIC50: 5.58

Lookup result for COc1cccc(C2=NCC3(CN4CCC3CC4)O2)c1 (stereo unspecified) ; measured pIC50: 6.39

Measured pIC50 of CN1CCC2(CC1)CN=C(c1cn(C)c3ccccc13)O2 : 6.80

Just so you know, measured pIC50 for C=CCn1cc(C2=NCC3(CN4CCC3CC4)O2)c2ccccc21 (stereo unspecified) came out at 8.10

Recorded result, Cn1cc(C2=NCC3(CC4CCC(C3)[N+]4(C)C)O2)c2ccccc21 (stereo in doubt; 22e) , pIC50: 8.48

Reported pIC50 ( Cn1c(I)c(C2=NCC3(CN4CCC3CC4)O2)c2ccccc21 (stereo unspecified) ) = 7.57

Measured pIC50, Cn1cc(C2=NCC3(CN4CCC3CC4)O2)c2cc(O)ccc21 (stereo unspecified) : 6.71

Notebook: COc1ccc2c(c1)c(C1=NCC3(CN4CCC3CC4)O1)cn2C (stereo unspecified) , pIC50 read as 6.58

Form: compound = c1ccc2c(C3=NCC4(CN5CCC4CC5)O3)c[nH]c2c1 (stereo unspecified) ; pIC50 = 8.32

Briefly, pIC50 measured for c1ccc2c(C3=NCC4(CN5CCC4CC5)O3)[nH]nc2c1 (stereo unspecified) : 7.58

Quick note, pIC50 for Cn1cc(C2=NCC3(CN4CCC3CC4)O2)c2cc([N+](=O)[O-])ccc21 (stereo unspecified) landed at 6.64

Looking up c1ccc2c(C3=NCC4(CN5CCC4CC5)O3)csc2c1 (stereo unspecified) , I see its pIC50 listed as 7.57

Given item Cn1cc(C2=NCC3(C[N+]4(C)CCC3CC4)O2)c2ccccc21 (single isomer, unassigned; 22n) , the value recorded as its pIC50 is 7.37

Lab book: pIC50 of Cn1cc(C2=NCC3(CC4CCC(C3)[N+]4(C)C)O2)c2ccccc21 (stereo in doubt; 22c) noted as 8.30

So, Cn1cc(C2=NCC3(CN4CCC3CC4)O2)c2ccccc21 (stereo unspecified) ? Its pIC50 was 8.50

The reported value for Cn1cc(C2=NCC3(CN4CCC3CC4)O2)c2cc(N)ccc21 (stereo unspecified) in terms of pIC50 is 6.24

So for c1ccc2c(c1)c(C1=NCC3(CN4CCC3CC4)O1)cn2CC1CC1 (stereo unspecified) , the logged pIC50 turned out to be 7.88

Per the record, CN1C2CCC1CC1(CN=C(c3cn(C)c4ccccc34)O1)C2 (stereo in doubt; 22d) has pIC50 of 8.20

pIC50 in this record for Cn1cc(C2=NCC3(CCN4CCCC3C4)O2)c2ccccc21 (stereo unspecified) : 8.95

Note to self: pIC50 recorded for C#CCn1cc(C2=NCC3(CN4CCC3CC4)O2)c2ccccc21 (stereo unspecified) was 8.21
